study_system: Estrogen receptor (Homo sapiens) (UniProt P03372)
Sequence (P03372 whole entry, looked up, the tested form may be a part): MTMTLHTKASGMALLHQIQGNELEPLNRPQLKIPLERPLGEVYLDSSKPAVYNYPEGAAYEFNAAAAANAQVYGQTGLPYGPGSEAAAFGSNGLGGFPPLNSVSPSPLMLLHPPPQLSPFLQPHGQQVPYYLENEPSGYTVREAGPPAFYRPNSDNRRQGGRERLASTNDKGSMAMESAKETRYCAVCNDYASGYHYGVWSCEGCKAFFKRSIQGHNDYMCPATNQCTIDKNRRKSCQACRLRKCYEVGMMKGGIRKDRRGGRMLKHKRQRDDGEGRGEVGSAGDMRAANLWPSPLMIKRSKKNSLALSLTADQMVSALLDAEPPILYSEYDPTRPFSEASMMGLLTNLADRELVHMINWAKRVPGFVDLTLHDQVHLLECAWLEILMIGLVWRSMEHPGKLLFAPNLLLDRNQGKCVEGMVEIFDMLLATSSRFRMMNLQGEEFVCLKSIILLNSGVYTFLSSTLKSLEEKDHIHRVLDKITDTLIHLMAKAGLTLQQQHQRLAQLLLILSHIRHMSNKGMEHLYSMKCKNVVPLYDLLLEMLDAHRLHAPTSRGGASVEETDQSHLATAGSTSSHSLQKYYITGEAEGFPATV
test: blockers of SRC-1 peptide recruitment to ERα – biochemical, TR-FRET, ERα LBD, estradiol-bound, primary screen (AID 629);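 further: 0% = receptor plus peptide control and 100% = peptide only without receptor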
experimental_parameters: TR-FRET ER-alpha LBD / SRC-1 peptide, at 25.6 µM, stronger effect = higher value
In all, about 86,000 compounds went through this assay and about 1,400 (1.6%) were called active. The sample as a whole holds a higher share of actives than the screen did.
Criterion: inhibition meeting or surpassing 20%. Met: true (1). Not met: false (0).

Completed entries (count: 4):
• CCOC(=O)N1CCN(C(=O)c2cc3c(ccc4ccccc43)oc2=O)CC1 = false (0)
• Cc1cc(C)nc(N2CCN(c3ncnc4c3oc3ccccc34)CC2)n1 = false (0)
• O=C(CSc1nc2cccnc2n1Cc1ccccc1)N1CCc2ccccc21 = true (1)
• O=C(NCC(=O)N(Cc1cccs1)C(C(=O)NC1CCCCC1)c1ccco1)c1cccs1 (stereo not given) = false (0)

Next up:
Reported inhibition at or above 20%? CCc1ccccc1NC1c2ccccc2C(=O)N1c1cccnc1 (stereo not given) false (0)

----------
Answer each item with its documented inhibition.
study_system: Estrogen receptor (Homo sapiens) (UniProt P03372)
test: blockers of SRC-1 peptide recruitment to ERα – biochemical, TR-FRET, ERα LBD, estradiol-bound, primary screen (AID 629);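 further: 0% = receptor plus peptide control and 100% = peptide only without receptor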
experimental_parameters: TR-FRET ER-alpha LBD / SRC-1 peptide, at 25.6 µM, stronger effect = higher value
In all, about 86,000 compounds went through this assay and about 1,400 (1.6%) were called active. Many of the other results were omitted from the sample, so actives are more common in it than they were.
Answers are plain numbers, in %.

Field: inhibition. Fill in for each record below.
1. CCOC(=O)/C(C#N)=C\c1c(C)cc(C)c(COC(C)=O)c1C
2. CC1(c2ccccc2Cl)NC(=O)N(CC(=O)NC(=O)NCc2ccco2)C1=O (stereo not given)
3. O=C(COC(=O)CCC(=O)c1cccs1)NCc1ccco1

-6.55
9.78
71.3

Field: inhibition. Fill in for each record below.
1. O=C(CCn1c(SCC(=O)c2ccccc2)nc2ccccc2c1=O)NCc1ccc(F)cc1
2. O=C(CCC(=O)c1cccs1)NCc1ccccc1

[47.2, 3.23]

----------
study_system: Estrogen receptor (Homo sapiens) (UniProt P03372)
test: blockers of SRC-1 peptide recruitment to ERα – biochemical, TR-FRET, ERα LBD, estradiol-bound, primary screen (AID 629);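 further: 0% = receptor plus peptide control and 100% = peptide only without receptor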
experimental_parameters: TR-FRET ER-alpha LBD / SRC-1 peptide, at 25.6 µM
About 1,400 (1.6%) of roughly 86,000 compounds were called active. Rule as the data show it: active = inhibition above about 50%; inactive = the rest. The entries come from a sample that favours actives as a whole.
In this exercise, the only acceptable responses are active, inactive

* Cc1ccc(/C=N/NC(=O)C2=NNC(c3ccccc3)(c3ccccc3)C2)c(O)c1 | inactive
* CCOc1ccc(S(=O)(=O)NCCSc2ccccc2)cc1 | inactive
* Cc1cc(C(=O)OC(C)C(=O)Nc2cccc(S(=O)(=O)N3CCOCC3)c2)c(C)o1 (centres undefined) | inactive
* CC(C)n1c(-c2cccs2)nc2ccccc21 | inactive
* COc1ccc2[nH]c(=O)c(-c3noc(-c4ccc(F)cc4)n3)cc2c1 | active

What classification did Cc1cccc(-c2noc(-c3ccc(F)cc3)n2)c1 end up with in this test? inactive

What classification did Cc1cccc(NC(=O)Cn2cc(C(=O)c3ccco3)c3ccccc32)c1 end up with in this test? active

What classification did c1ccc(-c2cc(-c3nnc4sc(-c5ccccn5)nn34)[nH]n2)cc1 end up with in this test? active

What classification did COc1ccc(-c2nn3c(-c4ccccc4)nnc3s2)cc1OC end up with in this test? inactive

What classification did CCOc1ccccc1/C=c1\sc2nc(-c3ccco3)nn2c1=O end up with in this test? active

What classification did COc1ccc(-c2nc3ccccc3n2CCC(C)C)cc1OC end up with in this test? inactive

What classification did COCCn1c(SCc2nnc(-c3ccc(OC)c(OC)c3)o2)nc2sc3c(c2c1=O)CCC3 end up with in this test? inactive

What classification did COc1cc(OC)c(C(=O)Nc2ccc(N(C)C)cc2)cc1OC end up with in this test? active

What classification did COc1ccccc1NC(=O)/C=C/C(N)=O end up with in this test? inactive

What classification did Cc1cccc(NC(=O)CSc2nnc(-c3ccco3)o2)c1 end up with in this test? inactive

What classification did Brc1ccc(-c2nnc(-c3ccccc3)o2)o1 end up with in this test? inactive

What classification did COC(=O)/C(NC(C)=O)=C(\C)c1ccc(Cl)cc1 end up with in this test? inactive

What classification did O=C(Cn1cc(C(=O)c2cccs2)c2ccccc21)NCc1cccs1 end up with in this test? inactive

What classification did Cc1nc2sc(C(c3ccco3)N3CCOCC3)c(O)n2n1 (centres undefined) end up with in this test? inactive

----------
study_system: Estrogen receptor (Homo sapiens) (UniProt P03372)
test: blockers of SRC-1 peptide recruitment to ERα – biochemical, TR-FRET, ERα LBD, estradiol-bound, primary screen (AID 629);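 further: 0% = receptor plus peptide control and 100% = peptide only without receptor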
experimental_parameters: TR-FRET ER-alpha LBD / SRC-1 peptide, at 25.6 µM
The whole screen tested about 86,000 compounds, of which about 1,400 (1.6%) were called active. Cut-off read from the data, not from the text of the source: active = inhibition above about 50%; inactive = the rest. This excerpt belongs to a sample that is enriched for actives.
In this exercise, the only acceptable responses are true (1) for active, false (0) for inactive

Completed entries (count: 5):
• O=C(Nc1ccc2nc3n(c(=O)c2c1)CCCCC3)c1ccccc1Cl = false (0)
• CCOC(=O)/C=c1\s/c(=C\c2ccccc2OC)c(=O)n1CC(=O)N1CCOCC1 = false (0)
• Cc1cc(C)n(-c2nnc(C)n2NC(=O)c2cccc(Cl)c2)n1 = false (0)
• CCCc1nc(NCc2ccc3c(c2)OCO3)c2nnn(Cc3ccccc3Cl)c2n1 = false (0)
• COc1ccc(OC)c(-n2nnnc2SCC(=O)Nc2cc(C)ccc2OC)c1 = false (0)

What classification did Cc1cnc(C(=O)OCC(=O)Nc2ccc(Cl)cc2Cl)cn1 end up with in this test? false (0)

What classification did CC(C)(C)c1ccc(OC2=CS(=O)(=O)c3ccccc32)cc1 end up with in this test? false (0)

What classification did CC1CCCCC1NC(=O)C1CCCN1S(=O)(=O)c1cccc2nsnc12 (stereo not given) end up with in this test? false (0)

What classification did COc1ccc(-c2noc(-c3ccc(C)cc3)n2)cc1 end up with in this test? false (0)

What classification did CCCC(C)n1[nH]c(=O)c2c(C)cc(C)nc21 (stereo not given) end up with in this test? false (0)

What classification did CCOc1cccc(-c2nn3c(-c4ccccn4)nnc3s2)c1 end up with in this test? false (0)

What classification did Cc1ccc(OC(=O)c2ccccc2C(=O)OCC(F)(F)C(F)F)cc1 end up with in this test? false (0)

What classification did CCOC(=O)N1CCN(C(=O)c2n[nH]c(=O)c3ccccc23)CC1 end up with in this test? false (0)

What classification did COc1ccc(CN(C(=O)CSc2nnc(-c3ccc(OC)c(OC)c3)o2)c2ccc(F)cc2)cc1 end up with in this test? false (0)

What classification did O=C(CN1CCCCCC1)N1c2ccccc2Sc2ccc(C(F)(F)F)cc21 end up with in this test? false (0)

What classification did COc1ccc(Cl)cc1NC(=O)c1oc(C)nc1C end up with in this test? true (1)

What classification did Cn1c2ccccc2c2c(C(=O)N3CCN(c4ccc(F)cc4)CC3)cn(C3CCCC3)c(=O)c21 end up with in this test? false (0)

What classification did CS(=O)(=O)c1ccc2c(c1)SC1=NC(=O)/C(=C/c3ccco3)C(=N)N12 end up with in this test? true (1)

What classification did Cc1nc(C)c(C(=O)Nc2cccc(C)c2C)o1 end up with in this test? false (0)

What classification did Cn1c(=NC(=O)CSCC(=O)N2CCOCC2)sc2ccccc21 end up with in this test? false (0)

Taken from PubChem BioAssay AID629.
